System: human umbilical vein endothelial cells (HUVEC)
Test: HUVEC + VEGF proliferation assay
Format: cell-based
Conditions: VEGF-stimulated proliferation, final VEGF 6 ng/mL, 72 hours, MTT

# INPUT_SMILES, IC50
data = [
    ("Cc1cc(NC(=O)Cc2ccc(Oc3ccnc4cc(C(=O)N5CCC5)sc34)cc2Cl)n[nH]1", "< 1 nM"),
    ("O=C(Cc1ccc(Oc2ccnc3cc(C(=O)N4CC[C@@H](O)C4)sc23)cc1)Nc1ccc(C(F)(F)F)cn1", "> 10 nM"),
    ("O=C(Cc1ccc(Oc2ccnc3cc(C(=O)N4CC[C@@H](O)C4)sc23)cc1)Nc1ccccn1", "> 10 nM"),
    ("O=C(Cc1ccc(Oc2ccnc3cc(C(=O)N4CCC4)sc23)cc1)Nc1nccc2ccccc12", "> 10 nM"),
    ("O=C(Cc1ccc(Oc2ccnc3cc(C(=O)N4CC[C@@H](O)C4)sc23)cc1Cl)Nc1ccccn1", "> 10 nM"),
    ("Cc1cc(C)nc(NC(=O)Cc2ccc(Oc3ccnc4cc(C(=O)N5C[C@@H](O)[C@@H](O)C5)sc34)cc2)c1", "< 1 nM"),
    ("O=C(Cc1ccc(Oc2ccnc3cc(C(=O)N4CCC4)sc23)cc1)Nc1cc2ccccc2cn1", "< 1 nM"),
    ("C=C(C(=O)NC)c1ccc(Oc2ccnc3cc(C(=O)N4CC[C@@H](O)C4)sc23)cc1", "> 10 nM"),
]
